test system: rodent lifetime carcinogenesis bioassay, tumor incidence TD50; experiment: carcinogenic potency in animals, long-term in vivo studies, CPDB compilation (AID 1745844); details: mouse; strain C57BL/He; females; in feed; site: lung; lesion: one or several types; types not named; dosed 104 weeks; study length 104 weeks
Active and inactive are the calls of the source. How the calls were made is not given here.
measured.endpoint: TD50

Task: Quick check: TD50 on rodent lifetime carcinogenesis bioassay, tumor incidence TD50, item C#C[C@]1(O)CC[C@H]2[C@@H]3CCc4cc(OC)ccc4[C@H]3CC[C@@]21C (tested in a mixture with another compound) ?
Output: 20.7 mg/kg/day (inactive)

* * *

test system: rodent lifetime carcinogenesis bioassay, tumor incidence TD50; test: carcinogenic potency in animals, long-term in vivo studies, CPDB compilation (AID 1745844); details: mouse; strain B6C3F1; males; by gavage; site: myocardium; lesion: sarcoma, NOS; dosed 52 weeks; study length 81 weeks
measured.endpoint: TD50

Task: Quick one: TD50 of C[C@]12CC[C@@H]3c4ccc(OC(=O)Cc5ccc(N(CCCl)CCCl)cc5)cc4CC[C@H]3[C@@H]1CC[C@@H]2OC(=O)Cc1ccc(N(CCCl)CCCl)cc1 ?
Output: 5.55 mg/kg/day

* * *

tested on: rodent lifetime carcinogenesis bioassay, tumor incidence TD50; assay: carcinogenic potency in animals, long-term in vivo studies, CPDB compilation (AID 1745844); conditions: rat; strain Fischer 344; females; by gavage; site: pituitary gland, anterior; lesion: chromophobe carcinoma; dosed 100 weeks; study length 104 weeks
measured.endpoint: TD50 (mg/kg/day)
Give bare numbers, in mg/kg/day.

Task: I'd like to know its TD50. The compound in question is CC(C)=CCl
Output: 222

* * *

system: rodent lifetime carcinogenesis bioassay, tumor incidence TD50; experiment: carcinogenic potency in animals, long-term in vivo studies, CPDB compilation (AID 1745844); settings: rat; strain Fischer 344; females; in feed; site: any site (literature study); lesion: several types; types named in the paper; dosed 94 weeks; study length 104 weeks
measured.endpoint: TD50 (mg/kg/day)
Answers are plain numbers, in mg/kg/day.

Task: # get_value(readout='TD50', item= CCNC(=O)Nc1ncc([N+](=O)[O-])s1 )
Output: 175

* * *

test system: rodent lifetime carcinogenesis bioassay, tumor incidence TD50; experiment: carcinogenic potency in animals, long-term in vivo studies, CPDB compilation (AID 1745844); settings: mouse; strain Swiss; females; inhaled; site: skin; lesion: epithelioma; dosed 30 weeks; study length 77 weeks
measured.endpoint: TD50 (mg/kg/day)
Give bare numbers, in mg/kg/day.

Task: Sample C=CCl — what was its TD50?
Output: 25100

* * *

test system: rodent lifetime carcinogenesis bioassay, tumor incidence TD50; assay: carcinogenic potency in animals, long-term in vivo studies, CPDB compilation (AID 1745844); conditions: rat; strain Wistar; males; in feed; site: forestomach; lesion: papilloma; dosed 78 weeks; study length 104 weeks
measured.endpoint: TD50 (mg/kg/day)
Give bare numbers, in mg/kg/day.

Task: TD50 of NC(=O)C(=Cc1ccc([N+](=O)[O-])o1)c1ccco1 on rodent lifetime carcinogenesis bioassay, tumor incidence TD50?
Output: 409

* * *

system: rodent lifetime carcinogenesis bioassay, tumor incidence TD50; assay: carcinogenic potency in animals, long-term in vivo studies, CPDB compilation (AID 1745844); details: mouse; strain Swiss albino; males; in drinking water; site: lung; lesion: adenoma; dosed 79 weeks; study length 79 weeks
measured.endpoint: TD50 (mg/kg/day)
Numbers only, in mg/kg/day.

Task: Could you share which TD50 value was measured for NC(=O)NNc1ccccc1 ?
Output: 158

* * *

system: rodent lifetime carcinogenesis bioassay, tumor incidence TD50; test: carcinogenic potency in animals, long-term in vivo studies, CPDB compilation (AID 1745844); settings: rat; strain Fischer 344; males; by gavage; site: stomach; lesion: squamous-cell carcinoma + squamous-cell papilloma; dosed 98 weeks; study length 104 weeks
measured.endpoint: TD50 (mg/kg/day)
Numbers only, in mg/kg/day.

Task: Would you kindly share the measured TD50 for c1cc(OCC2CO2)cc(OCC2CO2)c1 (stereo unspecified) ?
Output: 2.89

* * *

tested on: rodent lifetime carcinogenesis bioassay, tumor incidence TD50; assay: carcinogenic potency in animals, long-term in vivo studies, CPDB compilation (AID 1745844); conditions: monkey; strain Rhesus [Macaca mulatta]; both sexes; in feed; site: cheek pouch; lesion: squamous-cell carcinoma; dosed 928 weeks; study length 1139 weeks
measured.endpoint: TD50 (mg/kg/day)
One number for each entry, in mg/kg/day.

Task: Request the reported TD50 associated with CN(N=O)C(N)=O
Output: 95.6

* * *

tested on: rodent lifetime carcinogenesis bioassay, tumor incidence TD50; experiment: carcinogenic potency in animals, long-term in vivo studies, CPDB compilation (AID 1745844); conditions: rat; strain Fischer 344; females; by gavage; site: all sites + liver; lesion: mononuclear-cell leukemia + hepatocellular adenoma; dosed 102 weeks; study length 104 weeks
measured.endpoint: TD50 (mg/kg/day)
Give bare numbers, in mg/kg/day.

Task: Entry C=C1C/C(=C/C)C(=O)O[C@@H]2CCN3CC=C(COC(=O)[C@@]1(O)CO)[C@H]23 has what TD50?
Output: 0.234

* * *

tested on: rodent lifetime carcinogenesis bioassay, tumor incidence TD50; test: carcinogenic potency in animals, long-term in vivo studies, CPDB compilation (AID 1745844); conditions: rat; strain Fischer 344; males; in drinking water; site: skin; lesion: basal-cell adenoma + basal-cell carcinoma; dosed 58 weeks; study length 60 weeks
measured.endpoint: TD50

Task: Item under review: Cc1cc(-c2ccc(N)c(C)c2)ccc1N . Reported TD50?
Output: 0.5 mg/kg/day

* * *

tested on: rodent lifetime carcinogenesis bioassay, tumor incidence TD50; assay: carcinogenic potency in animals, long-term in vivo studies, CPDB compilation (AID 1745844); settings: rat; strain ACI; females; in feed; site: thigh; lesion: sarcoma; dosed 121 weeks; study length 121 weeks
Calls of active or inactive are those of the source. The rule behind the calls is not given here.
measured.endpoint: TD50

Task: Query: TD50; subject: O=c1c(O)c(-c2ccc(O)c(O)c2)oc2cc(O)cc(O)c12
Output: 90400 mg/kg/day (inactive)

* * *

tested on: rodent lifetime carcinogenesis bioassay, tumor incidence TD50; assay: carcinogenic potency in animals, long-term in vivo studies, CPDB compilation (AID 1745844); conditions: rat; strain Wistar; both sexes; in feed; site: several sites; sites named in the paper; lesion: several types; types named in the paper; dosed 78 weeks; study length 78 weeks
Active and inactive are the calls of the source. How the calls were made is not given here.
measured.endpoint: TD50

Task: TD50 of COC(=O)[C@H]1[C@H]2C[C@@H]3c4[nH]c5ccccc5c4CCN3C[C@H]2C[C@@H](OC(=O)c2cc(OC)c(OC)c(OC)c2)[C@@H]1OC on rodent lifetime carcinogenesis bioassay, tumor incidence TD50?
Output: 1.28 mg/kg/day (inactive)

* * *

test system: rodent lifetime carcinogenesis bioassay, tumor incidence TD50; assay: carcinogenic potency in animals, long-term in vivo studies, CPDB compilation (AID 1745844); conditions: mouse; strain B6C3F1; females; in feed; site: liver; lesion: hepatocellular adenoma + hepatocellular carcinoma; dosed 103 weeks; study length 103 weeks
measured.endpoint: TD50 (mg/kg/day)
Give bare numbers, in mg/kg/day.

Task: Record Nc1ccc2cc3ccc(N)cc3nc2c1 : what is its TD50 with rodent lifetime carcinogenesis bioassay, tumor incidence TD50?
Output: 26.4

* * *

test system: rodent lifetime carcinogenesis bioassay, tumor incidence TD50; test: carcinogenic potency in animals, long-term in vivo studies, CPDB compilation (AID 1745844); conditions: rat; strain Fischer 344; males; by gavage; site: subcutaneous tissue; lesion: fibrosarcoma + fibroma; dosed 103 weeks; study length 104 weeks
measured.endpoint: TD50 (mg/kg/day)
One number for each entry, in mg/kg/day.

Task: Fill in: TD50 of O=CCC=O is ___
Output: 195

* * *

tested on: rodent lifetime carcinogenesis bioassay, tumor incidence TD50; experiment: carcinogenic potency in animals, long-term in vivo studies, CPDB compilation (AID 1745844); details: mouse; strain CF-1; females; in drinking water; site: lung; lesion: one or several types; types not named; dosed 133 weeks; study length 133 weeks
measured.endpoint: TD50

Task: Which TD50 value belongs to CCOC(N)=O ?
Output: 23.8 mg/kg/day

* * *

test system: rodent lifetime carcinogenesis bioassay, tumor incidence TD50; test: carcinogenic potency in animals, long-term in vivo studies, CPDB compilation (AID 1745844); conditions: rat; strain Sprague-Dawley; females; inhaled; site: kidney; lesion: several types; types named in the paper; dosed 104 weeks; study length 159 weeks
measured.endpoint: TD50 (mg/kg/day)
One number for each entry, in mg/kg/day.

Task: GET /values?readout=TD50&item= ClC=C(Cl)Cl
Output: 41300

* * *

tested on: rodent lifetime carcinogenesis bioassay, tumor incidence TD50; test: carcinogenic potency in animals, long-term in vivo studies, CPDB compilation (AID 1745844); details: mouse; strain B6C3F1; males; in feed; site: spleen; lesion: hemangiosarcoma; dosed 104 weeks; study length 104 weeks
measured.endpoint: TD50 (mg/kg/day)
One number for each entry, in mg/kg/day.

Task: Entry O=C1OC(c2ccc(O)cc2)(c2ccc(O)cc2)c2ccccc21 : reported TD50 = ?
Output: 1640
